- Test system: COLO 205 colon
- test.method.notes: NCI tumour cell line growth inhibition, 48 h
Listed here are molecules together with their documented TGI.

# molecule, TGI
rows = [
    ("COc1ccccc1CNCCCN1C(=O)c2ccc3c4c(ccc(c24)C1=O)C(=O)N(CCCOCCCCOCCCN)C3=O", "0.454 µM"),
    ("C=C1C(=O)O[C@@H]2/C=C(\\C)CC/C=C(/COC(C)=O)C[C@@H](OC(C)=O)[C@@H]12", "14.1 µM"),
    ("C=C1C(=O)O[C@H]2[C@H]1CC/C(COC(=O)C(=O)c1cn(Cc3ccccc3)c3ccccc13)=C\\CC[C@@]1(C)O[C@@H]21", "4.46 µM"),
    ("Cn1c2c(c3ccccc31)CC1c3c(c4ccccc4n3C)CC21 (configuration not stated)", "> 100 µM"),
    ("Nc1nc(N)c2ncn(-c3ccc(Cl)cc3)c2n1", "> 100 µM"),
    ("O=Cc1c(C(=O)O)[nH]c(=O)[nH]c1=O", "> 100 µM"),
    ("O=C1OC(C(O)CO)C(=O)C1=O (configuration not stated)", "6730 µM"),
    ("Cc1ccc(N=Nc2c(O)ccc3cc(S(=O)(=O)O)cc(S(=O)(=O)O)c23)cc1", "> 100 µM"),
    ("NP(=O)(Oc1c2occc2cc2ccc(=O)oc12)N(CCCl)CCCl (configuration not stated)", "> 100 µM"),
    ("Oc1ccccc1C(Sc1nc2ccccc2s1)Sc1nc2ccccc2s1", "> 100 µM"),
    ("CCCN1CCC(=O)N(CCC(F)(F)C(F)(F)C(F)(F)C(F)(F)C(F)(F)C(F)(F)F)C1=S", "> 100 µM"),
    ("Cc1cc(S(=O)(=O)N=C2N(Cc3ccccc3)CCN2Cc2ccccc2)c(S)cc1Cl", "> 100 µM"),
    ("CCN(CC)C(=O)Cn1c(C)cc2ccccc21", "> 100 µM"),
    ("O=c1cc(-c2ccc(F)cc2)[nH]c2ncc(Cl)cc12", "> 100 µM"),
    ("COc1ccccc1CCc1cc(OC)c(OC)c(OC)c1", "> 100 µM"),
    ("CC(=O)OC(/C=C/c1ccccc1)=C(OC(C)C)/C1=C(\\c2ccccc2)SCCCSC1=O", "> 100 µM"),
    ("Cc1nc(-c2cc3cc([N+](=O)[O-])ccc3oc2=O)cs1", "> 100 µM"),
    ("COc1ccc(C(=C(Cl)c2ccccc2)c2ccc(OC)cc2)cc1", "> 100 µM"),
    ("COC(=O)[C@H](C)NC(=O)NC(=O)NC(=O)CI", "6.49 µM"),
    ("COc1cc(Cn2c3c(c4cc(O)ccc42)Cc2ccccc2C3=O)cc(OC)c1", "> 100 µM"),
    ("CN1C(=O)c2cccc3cc([N+](=O)[O-])cc(c23)C1=O", "> 10 µM"),
    ("Cc1cn(C2CC(O)C(CO)O2)c(=O)n2nnnc12 (configuration not stated)", "> 100 µM"),
]
